Test system: ACN;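 also: growth inhibition of the human ACN cell line, read out via cell viability testing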
Test: cells
Assay type: functional, cell-based, Homo sapiens
Details: Homo sapiens, ACN
Description: SANGER: Inhibition of human ACN cell growth in a cell viability assay.
Please go through the items and note down their IC50.

Provide measured IC50 value, entry: COc1cc2c(Nc3ccc(NC(=O)c4ccccc4)cc3)ncnc2cc1OCCCN1CCOCC1 > 4000 nM

Provide measured IC50 value, entry: CCN(CC)CCCCNc1ncc2cc(-c3cc(OC)cc(OC)c3)c(NC(=O)NC(C)(C)C)nc2n1 > 2000 nM

Provide measured IC50 value, entry: CS(=O)(=O)c1ccc(C(=O)Nc2ccc(Cl)c(-c3ccccn3)c2)c(Cl)c1 8500 nM

Provide measured IC50 value, entry: CO[C@H]1C[C@@H]2CC[C@@H](C)[C@@](O)(O2)C(=O)C(=O)N2CCCC[C@H]2C(=O)O[C@H]([C@H](C)C[C@@H]2CC[C@@H](OC(=O)C(C)(CO)CO)[C@H](OC)C2)CC(=O)[C@H](C)/C=C(\C)[C@@H](O)[C@@H](OC)C(=O)[C@H](C)C[C@H](C)/C=C/C=C/C=C/1C 13 nM

Provide measured IC50 value, entry: C#Cc1cccc(Nc2ncnc3cc(OCCOC)c(OCCOC)cc23)c1 > 2000 nM

Provide measured IC50 value, entry: CC[C@H](CO)Nc1nc(NCc2ccccc2)c2ncn(C(C)C)c2n1 > 16000 nM

Provide measured IC50 value, entry: Cn1cnc2c(F)c(Nc3ccc(Br)cc3Cl)c(C(=O)NOCCO)cc21 567 nM

Provide measured IC50 value, entry: CCN(CC)CCNC(=O)c1c(C)[nH]c(/C=C2\C(=O)Nc3ccc(F)cc32)c1C > 8000 nM
